Target: T1, recombinant human IgE (human, UniProt P01854-1 1-428)
T1 construct: made in-house (ALK); preloaded on immobilised FcεRIα in the displacement ELISA
T1 sequence (P01854 other isoform, or with tags, fused parts or gaps): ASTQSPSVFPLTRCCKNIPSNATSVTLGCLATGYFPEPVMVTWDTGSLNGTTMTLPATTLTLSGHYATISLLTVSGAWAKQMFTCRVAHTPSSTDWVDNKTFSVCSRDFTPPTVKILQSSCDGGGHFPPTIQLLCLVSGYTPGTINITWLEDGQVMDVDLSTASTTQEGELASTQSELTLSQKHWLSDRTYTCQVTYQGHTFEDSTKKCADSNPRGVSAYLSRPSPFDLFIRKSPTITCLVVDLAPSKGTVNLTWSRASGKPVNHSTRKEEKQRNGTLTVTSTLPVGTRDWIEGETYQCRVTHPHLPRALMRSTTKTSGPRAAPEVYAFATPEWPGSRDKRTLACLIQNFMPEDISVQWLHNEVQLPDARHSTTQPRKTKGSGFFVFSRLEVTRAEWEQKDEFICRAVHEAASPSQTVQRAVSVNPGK
Test: IgE-FcεRIα displacement ELISA
// reported Max effect per item
property-label: Max effect (%)

[
  {
    "binder": "A1B1(G4S)1 (bispecific antibody) EVQLLESGGGLVQPGGSLRLSCAASGFTFGNYDMAWVRQAPGKRPEWVSSIDTGGDITHYADSVKGRFTISRDNAKNTLYLQMNSLRPEDTAVYWCATDEEYALGPNEFDYYGQGTLVTVSSGGGGSQVQLQESGGGLVQTGGSLRLSCAVHGRTFSNTGMGWFRQAPGNERQFVAIISPSGTSTYYADSVKGRFTISRDPAKNTVYLQMNSLKMDDTAVYYCAASYGSNWSTLRHQRRNEYDAWGQGTQVAVS",
    "sign": ">",
    "value-reported": 95
  },
  {
    "binder": "sdAb B1 (VHH) VHH: QVQLQESGGGLVQTGGSLRLSCAVHGRTFSNTGMGWFRQAPGNERQFVAIISPSGTSTYYADSVKGRFTISRDPAKNTVYLQMNSLKMDDTAVYYCAASYGSNWSTLRHQRRNEYDAWGQGTQVAVS",
    "sign": "=",
    "value-reported": 65
  },
  {
    "binder": "sdAb D2 (VHH) VHH: DVQLQESGGGLVEAGGSLRLSCVASGRTFSGWSMGWFRQAPGKEREFVAAISWVGSWIGGTVYSNSVKGRFTISRDNARTTVYLQMNSLKPEDTAVYFCAAANSETPRIFASEYDYWGQGTQVTVS",
    "sign": "=",
    "value-reported": 50
  },
  {
    "binder": "sdAb F5 (VHH) VHH: DVQLQESGGGLVQPGGSLRLSCAASGSIFSIDIMGWYRQAPGKQRELVATMPEGNYINYADSVKGRLTLSRDKGKNTVYLQLNSLKPEDTAVYYCYGFGVREGRGNVYWGQGTQVTVS",
    "sign": "=",
    "value-reported": 35
  },
  {
    "binder": "B1A1(G4S)1 (bispecific antibody) QVQLQESGGGLVQTGGSLRLSCAVHGRTFSNTGMGWFRQAPGNERQFVAIISPSGTSTYYADSVKGRFTISRDPAKNTVYLQMNSLKMDDTAVYYCAASYGSNWSTLRHQRRNEYDAWGQGTQVAVSGGGGSEVQLLESGGGLVQPGGSLRLSCAASGFTFGNYDMAWVRQAPGKRPEWVSSIDTGGDITHYADSVKGRFTISRDNAKNTLYLQMNSLRPEDTAVYWCATDEEYALGPNEFDYYGQGTLVTVSS",
    "sign": ">",
    "value-reported": 95
  },
  {
    "binder": "sdAb A2 (VHH, also called A1 triple mutant (T28R, P45Y, V93E)) VHH: EVQLLESGGGLVQPGGSLRLSCAASGFRFGNYDMAWVRQAPGKRYEWVSSIDTGGDITHYADSVKGRFTISRDNAKNTLYLQMNSLRPEDTAEYWCATDEEYALGPNEFDYYGQGTLVTVS",
    "sign": ">",
    "value-reported": 95
  }
]
